# Test system: NCI-H1355
# Run Description: relative viability (nuclei count vs DMSO), 5 days (fraction); higher = more cells survive
# Test Conditions: first compound 0.1581 µM
Assay Readout: relative viability
No unit in the answer, only the number.

Worked examples follow.
# Compound, relative viability
data = [
    ("Nc1ccn([C@@H]2O[C@H](CO)[C@@H](O)[C@@H]2O)c(=O)n1 [Cytarabine] + CC(C)C[C@H](NC(=O)[C@H](Cc1ccccc1)NC(=O)c1cnccn1)B(O)O [Bortezomib] (partner 0.002 µM)", 0.644),
    ("Nc1ccn([C@@H]2O[C@H](CO)[C@@H](O)[C@@H]2O)c(=O)n1 [Cytarabine] + NC(=O)Nc1cc(-c2cccc(F)c2)sc1C(=O)N[C@H]1CCCNC1 [AZD7762] (partner 0.2 µM)", 0.181),
]

Next:
Request: Write down relative viability measured for item Nc1ccn([C@@H]2O[C@H](CO)[C@@H](O)[C@@H]2O)c(=O)n1 [Cytarabine] + COc1cc2c(Oc3ccc(NC(=O)C4(C(=O)Nc5ccc(F)cc5)CC4)cc3F)ccnc2cc1OCCCN1CCOCC1 [Foretinib] (partner 0.25 µM)
Result: 0.501

----------
# Test system: NCI-H2126
# Run Description: relative viability (nuclei count vs DMSO), 5 days (fraction); higher = more cells survive
# Test Conditions: first compound 15.81 µM
Assay Readout: relative viability
No unit in the answer, only the number.

# Compound, System Under Test, relative viability
data = [
    ("O=C(O)CCCCC(CCSCc1ccccc1)SCc1ccccc1 (centres undefined) [CPI-613] + O=C(c1cc(Cc2n[nH]c(=O)c3ccccc23)ccc1F)N1CCN(C(=O)C2CC2)CC1 [Olaparib] (partner 8 µM)", "NCI-H2126", 1.07),
]

Request: Write down relative viability measured for item O=C(O)CCCCC(CCSCc1ccccc1)SCc1ccccc1 (centres undefined) [CPI-613] + CC1(C)CCC(c2ccc(Cl)cc2)=C(CN2CCN(c3ccc(C(=O)NS(=O)(=O)c4ccc(N[C@H](CCN5CCOCC5)CSc5ccccc5)c(S(=O)(=O)C(F)(F)F)c4)cc3)CC2)C1 [Navitoclax] (partner 0.5 µM)
Result: 0.805

Request: Write down relative viability measured for item O=C(O)CCCCC(CCSCc1ccccc1)SCc1ccccc1 (centres undefined) [CPI-613] + CS(=O)(=O)CCNCc1ccc(-c2ccc3ncnc(Nc4ccc(OCc5cccc(F)c5)c(Cl)c4)c3c2)o1 [Lapatinib] (partner 2 µM)
Result: 0.754

Request: Write down relative viability measured for item O=C(O)CCCCC(CCSCc1ccccc1)SCc1ccccc1 (centres undefined) [CPI-613] + O=C(CCCCCCC(=O)Nc1ccccc1)NO [Vorinostat] (partner 1 µM)
Result: 0.68

----------
# Tested on: NCI-H2009
# Run Description: relative viability (nuclei count vs DMSO), 5 days (fraction); higher = more cells survive
# Test Conditions: first compound 0.005 µM
Listed here are molecules together with their documented relative viability.
No unit in the answer, only the number.

Worked examples follow.
# Molecule, relative viability
rows = [
    ("COc1cc2nccc(Oc3ccc(NC(=O)Nc4cc(C)on4)c(Cl)c3)c2cc1OC [Tivozanib] + COc1cccc2cc(-c3nc([C@H]4CC[C@H](C(=O)O)CC4)n4ncnc(N)c34)[nH]c12 [OSI-027] (partner 0.5 µM)", 0.605),
    ("COc1cc2nccc(Oc3ccc(NC(=O)Nc4cc(C)on4)c(Cl)c3)c2cc1OC [Tivozanib] + Cc1nc(Nc2ncc(C(=O)Nc3c(C)cccc3Cl)s2)cc(N2CCN(CCO)CC2)n1 [Dasatinib] (partner 0.075 µM)", 0.31),
]

Next:
Request: Give relative viability for this entry on NCI-H2009: COc1cc2nccc(Oc3ccc(NC(=O)Nc4cc(C)on4)c(Cl)c3)c2cc1OC [Tivozanib] + O=C(c1cc(Cc2n[nH]c(=O)c3ccccc23)ccc1F)N1CCN(C(=O)C2CC2)CC1 [Olaparib] (partner 8 µM)
Result: 0.655
